Below, each entry is listed alongside its reported GI50.
# Tested on: NCI-H226
# PROTOCOL_SUMMARY: NCI tumour cell line growth inhibition, 48 h
Activity calls are given as the source filed them. No stated cut-off is given here; in the data, active = GI50 up to about 1.1 µM and inactive = higher.

Reference set (3 entries):
>>> result("CC1=C(N2CC2)C(=O)c2ccccc2C1=O")
"2.06 µM (inactive)"
>>> result("O=C1c2ccccc2C2(O)Oc3cccc(O)c3C12O (configuration not stated)")
"> 100 µM (inactive)"
>>> result("N=C(N)NS(=O)(=O)c1ccc(Nc2c3ccccc3nc3c(C(=O)N4CCN(CCO)CC4)cccc23)cc1")
"> 100 µM (inactive)"

**Query** // lookup GI50 for `Cc1cccc2c(=O)c([Se]c3coc4c(C)cccc4c3=O)coc12`
**Result** 16.9 µM (inactive)

**Query** // lookup GI50 for `Nc1nc(S)nc2snnc12`
**Result** > 100 µM (inactive)

**Query** // lookup GI50 for COC(=O)/C(=N/O)C(C(=O)OC)C(=O)C(=O)Nc1c(Cl)cc(C)cc1S(=O)(=O)O (configuration not stated)
**Result** > 100 µM (inactive)

**Query** // lookup GI50 for `O=C(O)COc1ccccc1C(=O)Nc1ccccc1`
**Result** > 100 µM (inactive)

**Query** // lookup GI50 for COC(=O)C(COC(C)=O)NC(=O)/C=C/c1ccc(O)c(OC(C)=O)c1 (configuration not stated)
**Result** > 100 µM (inactive)

**Query** // lookup GI50 for CC(C)COP(C)(=O)C(N)(C(F)(F)F)C(F)(F)F (configuration not stated)
**Result** > 100 µM (inactive)

**Query** // lookup GI50 for `O=C(Cc1ccccc1)Oc1ccc2c(-c3ccccc3)c(C(=O)Nc3ccc(Cl)cc3)c(=O)oc2c1`
**Result** > 100 µM (inactive)

**Query** // lookup GI50 for `c1ccc(CCNc2ccccn2)nc1`
**Result** > 100 µM (inactive)

**Query** // lookup GI50 for `O=C(CN1CCCCC1)c1ccc2c(c1)Sc1ccccc1O2`
**Result** 14.2 µM (inactive)
